- assaySystem: human MAO-B (Homo sapiens, UniProt P27338)
- Construct: purchased Sigma-Aldrich
- test: IC50 determination for MAO-B inhibition (kynuramine, fluorescence)
- Format: biochemical
- statedConditions: SI = IC50(MAO-A)/IC50(MAO-B)
Attribute: Selectivity index
testReadout: Selectivity index

• O=C(/C=C/c1ccc(Cl)cc1)c1ccc2c(c1)OCO2 = 3.0
• CSc1ccc(C(=O)/C=C/c2cccc(Br)c2)cc1 = 487
• COc1ccccc1/C=C/C(=O)c1ccc(Br)cc1 = 5.8
• COc1cccc(/C=C/C(=O)c2ccc(Br)cc2)c1OC = 37
• O=C(/C=C/c1ccc([N+](=O)[O-])cc1)c1ccc2c(c1)OCO2 = 13
• O=C(/C=C/c1ccc([N+](=O)[O-])cc1)c1ccc(F)cc1 = 172

====

- assaySystem: human MAO-B (Homo sapiens, UniProt P27338)
- Sequence (P27338 1-520): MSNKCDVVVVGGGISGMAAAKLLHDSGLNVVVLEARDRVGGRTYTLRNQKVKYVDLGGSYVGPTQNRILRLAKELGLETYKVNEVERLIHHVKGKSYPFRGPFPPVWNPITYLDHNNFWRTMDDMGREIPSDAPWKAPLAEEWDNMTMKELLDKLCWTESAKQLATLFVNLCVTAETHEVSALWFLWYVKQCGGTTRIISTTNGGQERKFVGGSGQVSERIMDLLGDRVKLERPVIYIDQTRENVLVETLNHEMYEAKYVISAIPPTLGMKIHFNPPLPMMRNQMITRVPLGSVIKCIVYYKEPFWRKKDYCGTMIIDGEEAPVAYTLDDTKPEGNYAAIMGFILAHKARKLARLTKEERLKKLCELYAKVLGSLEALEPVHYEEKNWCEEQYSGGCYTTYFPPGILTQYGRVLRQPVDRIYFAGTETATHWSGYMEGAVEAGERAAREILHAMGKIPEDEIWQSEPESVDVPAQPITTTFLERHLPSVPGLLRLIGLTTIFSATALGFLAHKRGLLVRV
testReadout: Ki (nM)

• O=C(/C=C/c1ccc(Cl)cc1)c1ccc2c(c1)OCO2 [Compound 16] = 20

====

- assaySystem: human MAO-B (Homo sapiens)
- Construct: purchased Sigma-Aldrich
- test: IC50 determination for MAO-B inhibition (kynuramine, fluorescence)
- Format: biochemical
- statedConditions: recombinant hMAO-B, kynuramine 50 μM, mean ± SD (triplicate)
Attribute: IC50
testReadout: IC50 (µM)

- O=C(/C=C/c1cccc2c1OCO2)c1ccc(Br)cc1: 0.106
- COc1cccc(/C=C/C(=O)c2ccc(Br)cc2)c1OC: 0.174
- CSc1ccc(C(=O)/C=C/c2cccc(Br)c2)cc1: 0.198
- CN(C)c1ccc(/C=C/C(=O)c2ccc(Br)cc2)cc1: 0.539
- CCOc1cccc(/C=C/C(=O)c2ccc(Br)cc2)c1OCC: 15.6
- O=C(/C=C/c1ccc([N+](=O)[O-])cc1)c1ccc(F)cc1: 0.069
- O=C(/C=C/c1cccc2c1OCO2)c1ccc(Cl)cc1: 0.139
- CS(=O)(=O)c1ccc(C(=O)/C=C/c2ccc(Br)cc2)cc1: 0.404
- CN(C)c1ccc(/C=C/C(=O)c2ccc(Cl)cc2)cc1: 0.321
- O=C(/C=C/c1cccc2c1OCO2)c1cccc(Br)c1: 0.081
- O=C(/C=C/c1ccc(Cl)cc1)c1ccc2c(c1)OCO2: 0.05
- O=C(/C=C/c1ccc([N+](=O)[O-])cc1)c1ccc(Cl)cc1: 0.034
- CN(C)c1ccc(/C=C/C(=O)c2cccc(C(F)(F)F)c2)cc1: 0.123
- O=C(/C=C/c1cccc2c1OCO2)c1cccc(Cl)c1: 0.058
- O=C(/C=C/c1ccc(Br)cc1)c1ccc2c(c1)OCO2: 0.102
- COc1cc(Br)ccc1/C=C/C(=O)c1ccc(S(C)(=O)=O)cc1: 0.582
